Would you mind telling me the reported cell viability of each entry?
test system: Vero E6; assay: cell viability relative to DMSO; higher = less toxic; conditions: 72 h; 10000 nM
Provide the measurement as a number trailed by its unit.

>  <compound>
CC(C)(O)CS(=O)(=O)Nc1ccc2c(c1)CCN(C(=O)COc1cccnc1)C2 [Nampt-IN-1]

>  <measurement>
2.4%

$$$$
>  <compound>
Cn1nnnc1SCC1=C(C(=O)O)N2C(=O)[C@@H](NC(=O)[C@H](OC=O)c3ccccc3)[C@H]2SC1 [cefamandole-nafate]

>  <measurement>
104%

$$$$
>  <compound>
Nc1ncnc2c1ncn2[C@H]1O[C@@H](C(=O)N2CCN(CC(=O)Nc3cccc4c3CNC4=O)CC2)[C@H](O)[C@@H]1O [EB-47]

>  <measurement>
97.6%

$$$$

Provide cell viability values for the following items, in order.
1. CCCC(CCC)C(=O)Nc1ccn([C@@H]2O[C@H](CO)[C@@H](O)C2(F)F)c(=O)n1
2. COc1nccc(-c2c(-c3ccc(F)cc3)ncn2C2CCNCC2)n1

**Result**
1. 63%
2. 89%

Provide cell viability values for the following items, in order.
1. O=C(C=Cc1ccccc1)NC(NC(=S)Nc1ccc(Cl)cc1)C(Cl)(Cl)Cl (configuration not stated) [sal003]
2. O=S(=O)(O)c1ccc(-c2c3nc(c(-c4ccc(S(=O)(=O)O)cc4)c4ccc([nH]4)c(-c4ccc(S(=O)(=O)O)cc4)c4nc(c(-c5ccc(S(=O)(=O)O)cc5)c5ccc2[nH]5)C=C4)C=C3)cc1 [TPPS4]

**Result**
["81.2%", "81.9%"]
